- SYSTEM NAME: human V1a receptor (Homo sapiens, UniProt P37288)
- Construct: host or cells: CHO cells (hV1a cell line)
- Sequence (P37288 whole entry): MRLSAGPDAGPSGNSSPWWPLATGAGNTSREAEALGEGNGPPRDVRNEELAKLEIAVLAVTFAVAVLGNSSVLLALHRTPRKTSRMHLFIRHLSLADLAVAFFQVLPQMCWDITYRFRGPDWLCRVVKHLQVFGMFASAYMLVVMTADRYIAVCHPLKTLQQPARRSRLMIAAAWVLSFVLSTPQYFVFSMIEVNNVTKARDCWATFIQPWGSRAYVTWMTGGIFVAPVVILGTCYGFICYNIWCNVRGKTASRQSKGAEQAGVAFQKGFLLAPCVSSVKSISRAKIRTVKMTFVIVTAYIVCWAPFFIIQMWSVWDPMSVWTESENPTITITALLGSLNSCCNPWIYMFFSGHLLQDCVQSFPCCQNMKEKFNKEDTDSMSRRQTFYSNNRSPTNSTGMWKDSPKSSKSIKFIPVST
- MEASUREMENT PROTOCOL: Human vasopressin V1a receptor binding assay (3H-AVP competition, hV1a CHO cells)
- RECORDED CONDITIONS: 3H-AVP competition, CHO cells expressing human V1a; read-out: V1a Ki
pKi: −log10 of the molar value.
If the reported pKi equals or exceeds 9, assign Condition met. If not, assign Condition not met.

Query :: Reported pKi reaches at least 9 for O=C(NC1CCCc2ccccc21)C(CCC(=O)N1CCN(CCCO)CC1)N1C(=O)C(N2C(=O)OCC2c2ccccc2)C1C=Cc1ccccc1 (centres unmarked) [Example 221BI] ?
Result :: Condition not met

Query :: hey, is pKi for this one >= 9? O=C([C@@H](CSCc1ccccc1)N1C(=O)[C@@H](N2C(=O)OC[C@@H]2c2ccccc2)[C@H]1/C=C/c1ccccc1)N1CCC(CCN2CCCCC2)CC1
Result :: Condition met

Query :: Hi, just wondering whether O=C(NCc1cccc(C(F)(F)F)c1)C(CCC(=O)N1CCN(C2CCCCC2)CC1)N1C(=O)C(N2C(=O)OCC2c2ccccc2)C1C(Cl)=Cc1ccccc1 (centres unmarked) shows pKi of 9 or higher.
Result :: Condition met

###

- SYSTEM NAME: human V1a receptor (Homo sapiens)
MEASURED QUANTITY: IC50 (nM)
Provide only the numeric value, understood in nM.

Query :: Report the value of IC50 obtained on human V1a receptor (Homo sapiens) for O=C(NC1CCCc2ccccc21)C(CCC(=O)N1CCN(CCCO)CC1)N1C(=O)C(N2C(=O)OCC2c2ccccc2)C1C=Cc1ccccc1 (stereo not drawn) [Example 221BI] .
Result :: 56

Query :: Lab note: record IC50 of O=C(NCc1cccc(C(F)(F)F)c1)C(C(=O)N1CCC(CCN2CCCCC2)CC1)N1C(=O)C(N2C(=O)OCC2c2ccccc2)C1C=Cc1ccccc1 (stereo not drawn) [Example 42A] tested on human V1a receptor (Homo sapiens).
Result :: 1.77

Query :: Print human V1a receptor (Homo sapiens) IC50 for O=C(N[C@@H]1CCCc2ccccc21)[C@H](CCC(=O)N1CCN(C2CCCCC2)CC1)N1C(=O)[C@@H](N2C(=O)OC[C@@H]2c2ccccc2)[C@H]1/C=C/c1ccccc1Cl .
Result :: 6.5

###

Lab note: log10 IC50 readings collected with UniProtKB P37288 for the following compounds.
Please interpret these as log10 of IC50 where IC50 is in nM.

Query :: Give the observed log10 IC50 of C[C@@H](NC(=O)[C@H](CCC(=O)N1CCN(C2CCCCC2)CC1)N1C(=O)[C@@H](N2C(=O)OC[C@@H]2c2ccccc2)[C@H]1/C=C/c1ccccc1)c1cccc(C(F)(F)F)c1 [Example 221F] for UniProtKB P37288.
Result :: 0.23

Query :: Give UniProtKB P37288 log10 IC50 for the following compound: O=C(NCc1cccc(C(F)(F)F)c1)C(CC(=O)N1CCC(CN2CCCCC2)CC1)N1C(=O)C(N2C(=O)OCC2c2ccccc2)C1C=Cc1ccccc1 (centres unmarked) [Example 134G]
Result :: 0.78

Query :: State log10 IC50 on UniProtKB P37288. Entry: O=C(NCc1cccc(C(F)(F)F)c1)C(C(=O)N1CCC(N2CCCCC2)CC1)N1C(=O)C(N2C(=O)OCC2c2ccccc2)C1C=Cc1ccccc1 (centres unmarked)
Result :: 0.74

Query :: Fill in: log10 IC50 on UniProtKB P37288, entry O=C(CCC(C(=O)NC1CCCc2ccccc21)N1C(=O)C(N2C(=O)OCC2c2ccccc2)C1C=Cc1ccccc1)NCCN1CCCCC1 (centres unmarked) [Example 221X]
Result :: 1.06

Query :: Give log10 IC50 only, for O=C(NC(CCO)c1ccccc1)C(CCC(=O)N1CCN(C2CCCCC2)CC1)N1C(=O)C(N2C(=O)OCC2c2ccccc2)C1C=Cc1ccccc1 (centres unmarked) [Example 221Q] , using UniProtKB P37288 data.
Result :: 1.26

Query :: GET log10 IC50 | system: UniProtKB P37288 | item: O=C(NC1(c2ccccc2)CCCC1)C(CC(=O)N1CCC(N2CCCCC2)CC1)N1C(=O)C(N2C(=O)OCC2c2ccccc2)C1C=Cc1ccccc1 (centres unmarked) [Example 132D]
Result :: 0.80

Query :: Report value only: log10 IC50, UniProtKB P37288, O=C(NC1CCCc2ccccc21)C(CCC(=O)N1CCCC1CN1CCCC1)N1C(=O)C(N2C(=O)OCC2c2ccccc2)C1C=Cc1ccccc1 (centres unmarked) [Example 221Y]
Result :: 0.88

Query :: Give UniProtKB P37288 log10 IC50 for the following compound: O=C(NC1(c2ccc(F)cc2)CCCC1)C(CCC(=O)N1CCN(C2CCCCC2)CC1)N1C(=O)C(N2C(=O)OCC2c2ccccc2)C1C=Cc1ccccc1 (centres unmarked) [Example 221I]
Result :: 1.08

Query :: Please report the measured log10 IC50 for O=C(NCc1cccc(C(F)(F)F)c1)[C@H](CCC(=O)N1CCN(N2CCCC2)CC1)N1C(=O)[C@@H](N2C(=O)OC[C@@H]2c2ccccc2)[C@H]1/C=C/c1ccccc1 tested on UniProtKB P37288.
Result :: 0.51

Query :: # return log10 IC50 of CCCN1CCN(C(=O)CCC(C(=O)NCc2cccc(C(F)(F)F)c2)N2C(=O)C(N3C(=O)OCC3c3ccccc3)C2C=Cc2ccccc2)CC1 (centres unmarked) [Example 120B] (system: UniProtKB P37288)
Result :: 0.47

###

Exercise: state measured pIC50 for each of the compounds provided.
- SYSTEM NAME: human V1a receptor (Homo sapiens)
- Construct: host or cells: CHO cells (hV1a cell line)
- MEASUREMENT PROTOCOL: Human vasopressin V1a receptor binding assay (3H-AVP competition, hV1a CHO cells)
- RECORDED CONDITIONS: 3H-AVP competition, CHO cells expressing human V1a; read-out: V1a Binding Affinity IC50
// pIC50 here means minus log10 of the molar concentration (mol/L)

Query :: Report the value of pIC50 obtained on human V1a receptor (Homo sapiens) for O=C(NCc1cccc(C(F)(F)F)c1)C(CCC(=O)N1CCN(C2CCCCC2)CC1)N1C(=O)C(N2C(=O)OCC2c2ccccc2)C1C(Cl)=Cc1ccccc1 (stereo not drawn) .
Result :: 9.31

Query :: Give pIC50; test system human V1a receptor (Homo sapiens); compound O=C(NC1(c2ccccc2)CCCC1)[C@H](CCC(=O)N1CCN(Cc2ccccc2)CC1)N1C(=O)[C@@H](N2C(=O)OC[C@@H]2c2ccccc2)[C@H]1/C=C/c1ccccc1
Result :: 7.60

Query :: Given O=C(N[C@@H]1CCCc2ccccc21)[C@H](CCC(=O)N1CCN(C2CCCCC2)CC1)N1C(=O)[C@@H](N2C(=O)OC[C@@H]2c2ccccc2)[C@H]1/C=C/c1cccc(F)c1 , report its pIC50 on human V1a receptor (Homo sapiens).
Result :: 8.96

###

- SYSTEM NAME: human V1a receptor (Homo sapiens)
Provide the recorded log10(IC50) for the entries that follow.
Parameter value (number): base-10 log of IC50 in nM.

Query :: Identify log10(IC50) associated with the compound O=C(NCc1cccc(C(F)(F)F)c1)C(CCC(=O)N1CCN(Cc2ccc3c(c2)OCO3)CC1)N1C(=O)C(N2C(=O)OCC2c2ccccc2)C1C=Cc1ccccc1 (stereo not drawn)
Result :: 0.64

Query :: # return recorded log10(IC50) for entry O=C(NC1(c2ccccc2)CCCC1)[C@H](CCC(=O)N1CCN(C2CCCCC2)CC1)N1C(=O)[C@@H](N2C(=O)OC[C@@H]2c2ccccc2)[C@H]1/C=C/c1cccc(Cl)c1
Result :: 0.53

Query :: Respond only with log10(IC50) recorded for CCN1CCN(C(=O)CCC(C(=O)NC2CCCc3ccccc32)N2C(=O)C(N3C(=O)OCC3c3ccccc3)C2C=Cc2ccccc2)CC1 (stereo not drawn) [Example 221BD]
Result :: 0.43

Query :: Look up log10(IC50) of CC(NC(=O)C(CC(=O)N1CCC(N2CCCCC2)CC1)N1C(=O)C(N2C(=O)OCC2c2ccccc2)C1C=Cc1cccc(Br)c1)c1ccccc1 (stereo not drawn) and report it.
Result :: -0.28

Query :: In one line, give reported log10(IC50) of the entry CCCCN1CCN(C(=O)CCC(C(=O)NCc2cccc(C(F)(F)F)c2)N2C(=O)C(N3C(=O)OCC3c3ccccc3)C2C(Br)=Cc2ccccc2)CC1 (stereo not drawn) [Example 230L] .
Result :: 1.10

Query :: Look up and state reported log10(IC50) for O=C(NC1(c2ccccc2F)CCCC1)C(CCC(=O)N1CCN(C2CCCCC2)CC1)N1C(=O)C(N2C(=O)OCC2c2ccccc2)C1C=Cc1ccccc1 (stereo not drawn) [Example 221H]
Result :: 0.60
